Assay: Oral absorption of CBD in rats
Assay type: in vivo, Sprague drawly rats
Conditions: Sprague-Dawley, rat, po, gavage to the stomach, 12 mg/kg, plasma CBD by LC-MS
measurement-name: Cmax (ng/mL)
Give bare numbers, in ng/mL.

**Query** // lookup Cmax for C=C(C)[C@@H]1CCC(C)=C[C@H]1c1c(O)cc(CCCCC)cc1O
**Result** 38
